EXPERIMENT_SUMMARY: qHTS RealTime-Glo MT Cell Viability Assay in HEK293 cells - 40 hour (AID 1224874); also: % is scaled to controls: 0 for no effect and ±100 for the full control effect; nearly all actives have a fitted effect of over 50% in size
CONDITION_CONTEXT: RealTime-Glo luminescence, hits give low values
Inconclusive results are not listed.
MEASUREMENT_TYPE: max response (%)
Kindly provide the numeric value in % only, without the unit symbol.

# input Any idea what max response was measured for CC(C)=CCC/C(C)=C\C#N ?
# output 15.8

# input Name the recorded max response for CN(C)c1ccncc1 .
# output -16.5

# input Endpoint output: max response of CC(CN1CC(=O)NC(=O)C1)N1CC(=O)NC(=O)C1 (stereo unspecified) . Value?
# output -4.03

# input Requested read-out: max response. Entry: CCCCCCCCC1CO1 (stereo unspecified)
# output -0.591

# input Entry O=C(O)CCCCCCCCCC(=O)O : reported max response = ?
# output 0.0039

# input What measured max response goes with COC(=O)c1cc(Cl)c(NC(C)=O)cc1OC ?
# output 0.647

# input Request the reported max response associated with c1cc2ccc3ccc4ccc5cccc6c(c1)c2c3c4c56
# output 1.82

# input Form field: reported max response of N[C@H]1C(O)O[C@H](CO)[C@@H](O)[C@@H]1O (stereo partly specified)
# output -1.72

# input Endpoint output: max response of CCCCOCCCC . Value?
# output 8.08

# input Data request, read-out max response, for CCCCCC(CC)OC(=O)CCCOc1ccc(Cl)cc1Cl (stereo unspecified)
# output 2.48

# input I'd like to know its max response. The compound in question is CC[C@@]1(c2ccccc2)NC(=O)N(C)C1=O
# output 14.4

# input For the compound shown here, CCO/C=C1\N=C(c2ccccc2)OC1=O , give the reported max response.
# output 18.4

# input Given CC(C)(O)CCCC1=CCC(C=O)CC1 (stereo unspecified) , state its recorded max response.
# output -16

# input I would be grateful if you could share the reported max response for CC(C)(C)NCC(O)COc1cccc2c1CCC(=O)N2 (stereo unspecified) .
# output 5.27

# input # max response lookup, item CN1C(CCl)Nc2cc(Cl)c(S(N)(=O)=O)cc2S1(=O)=O (stereo unspecified)
# output -6.26

# input Need max response of CC(C)(C)c1ccc(N)cc1 , thanks.
# output -2.84

# input Request the reported max response associated with CN1CCN(C(=O)C2CCCCC2)CC1
# output 0.482

# input Requested read-out: max response. Entry: CC(C)(C)C(=O)CCc1ccc(Cl)cc1
# output 1.49

# input I'd like to know its max response. The compound in question is CCCCC(CC)CCC(CC(C)C)OS(=O)(=O)O (stereo unspecified)
# output -2.38

# input Which max response is listed for O=S(=O)(O)c1cc(I)c(O)c2ncccc12 ?
# output 5.82

# input For the compound shown here, CC(C)(C)c1ccc(C(=O)CCCCl)cc1 , give the reported max response.
# output -1.09

# input Which max response is listed for CCO[Si](CC(C)C)(OCC)OCC ?
# output -8.56

# input Which max response is reported for this compound? CCCCCCCCCCCCCCBr
# output -1.85

# input compound: C=CCCCCCCCCOC(C)=O ; wanted: its max response
# output 0.238

# input Form field: reported max response of Cc1ccc2cccnc2c1
# output 20.7

# input Requested read-out: max response. Entry: CCNC(=O)C(C)OC(=O)Nc1ccccc1 (stereo unspecified)
# output -1.79

# input Consider the compound Cc1cc(O)c(Cl)cc1C and give its measured max response.
# output -1.07

# input Which max response value belongs to CC(=O)SC[C@@H](C)C(=O)N1CCC[C@H]1C(=O)N[C@@H](Cc1ccccc1)C(=O)O ?
# output 3.03

# input Tell me the measured max response of CCC(C)c1nccnc1OC (stereo unspecified) , please.
# output 1.32

# input Any idea what max response was measured for COC(=O)c1ccc(C(=O)O)cc1 ?
# output 1.5

# input Look up max response: C/C=C/C(=O)CCCC
# output 0.74

# input Bench note: what max response did NNC(=O)OCc1ccccc1 show?
# output -4.79

# input I would be grateful if you could share the reported max response for C[n+]1ccccc1/C=N/O .
# output 0.0286

# input Please look up its max response: Cc1cc(C)c(C)c(C)c1
# output -10

# input Can you share its max response? I mean this compound: O=C(O)CCC(=O)Nc1ccc(S(=O)(=O)Nc2nccs2)cc1
# output 2.99

# input Dear colleague, I am looking for the recorded max response of the following compound: O=Cc1ccc(C(=O)O)cc1
# output 0.978

# input What max response value was documented for this compound, C[C@]12C=CC(=O)C=C1[C@@H](F)C[C@@H]1[C@@H]2[C@@H](O)C[C@@]2(C)[C@H]1CC[C@]2(O)C(=O)CO ?
# output -0.454

# input Fill in: max response of C=C(C)C(=O)OCCOC1CC2CC1C1C=CCC21 (stereo unspecified) is ___
# output 0.272

# input Need max response, item CCC(=O)OCCOc1ccccc1
# output 5.48

# input # max response lookup, item COC(=O)/C=C(\C)CCC=C(C)C
# output 9.52

# input Item Cc1cc(=O)oc2cc(O[C@@H]3SC[C@@H](O)[C@H](O)[C@H]3O)ccc12 has what recorded max response?
# output -5.1

Values from PubChem BioAssay (Tox21)
